- Measurement description: Aqueous solubility at 37° C. (HPLC of filtered suspension)
- Assay type: physicochemical
- Assay conditions: acetate buffer with 0.9% w/v sodium chloride, aqueous buffer, thermodynamic from solid; buffer (iii) acetate buffer, pH 4.5, 0.9% w/v sodium chloride; 37° C.; 4 hours; read-out: concentration of QTX125 (solubility)
Quantity kind: solubility at 4 h
Answer by giving the amount and then stating its unit.

compound O=C(NO)c1ccc(CNC(=O)c2[nH]c(-c3ccc(O)cc3)cc2-c2ccoc2)cc1 [QTX125 Form 2] , solubility at 4 h observed: 0.29 µg/mL

====

- Measurement description: Aqueous solubility at 37° C. (HPLC of filtered suspension)
- Type: physicochemical
- Assay conditions: phosphate buffer with 0.9% w/v sodium chloride, aqueous buffer, thermodynamic from solid; buffer (ii) phosphate buffer, pH 6.5, 0.9% w/v sodium chloride; 37° C.; 1 hour; read-out: concentration of QTX125 (solubility)
Quantity kind: solubility at 1 h (µg/mL)
The reply should be a number in µg/mL, with the unit left off.

Sample O=C(NO)c1ccc(CNC(=O)c2[nH]c(-c3ccc(O)cc3)cc2-c2ccoc2)cc1 [QTX125 Form 2] ; solubility at 1 h observed: 0.33

====

- Measurement description: Aqueous solubility at 37° C. (HPLC of filtered suspension)
- Type: physicochemical
- Assay conditions: 0.9% w/v sodium chloride solution, saline or isotonic, thermodynamic from solid; buffer (v) sodium chloride, 0.9% w/v; 37° C.; 1 hour; read-out: concentration of QTX125 (solubility)
Quantity kind: solubility at 1 h (µg/mL)
Report as a plain number; the unit µg/mL is understood.

Query O=C(NO)c1ccc(CNC(=O)c2[nH]c(-c3ccc(O)cc3)cc2-c2ccoc2)cc1 [QTX125 Form 2] yields solubility at 1 h of 0.68

====

- Measurement description: Aqueous solubility at 37° C. (HPLC of filtered suspension)
- Assay type: physicochemical
- Assay conditions: phosphate buffer with 0.9% w/v sodium chloride, aqueous buffer, thermodynamic from solid; buffer (ii) phosphate buffer, pH 6.5, 0.9% w/v sodium chloride; 37° C.; 24 hours; read-out: concentration of QTX125 (solubility)
- Protocol: The solubility of novel crystalline forms of QTX125 was assessed in the following aqueous solutions: (i) phosphate buffer, pH 3.5, 0.9% w/v sodium chloride; (ii) phosphate buffer, pH 6.5, 0.9% w/v sodium chloride; (iii) acetate buffer, pH 4.5, 0.9% w/v sodium chloride; (iv) citro-phosphate buffer, pH 4.5, 0.9% w/v sodium chloride; (v) sodium chloride, 0.9% w/v and (vi) deionised water. All assays were completed at 37° C. […]
Quantity kind: solubility at 24 h (µg/mL)
Return type: number; implicit unit µg/mL.

molecule O=C(NO)c1ccc(CNC(=O)c2[nH]c(-c3ccc(O)cc3)cc2-c2ccoc2)cc1 [QTX125 Form 2] , solubility at 24 h observed: 0.63

====

- Measurement description: Aqueous solubility at 37° C. (HPLC of filtered suspension)
- Assay type: physicochemical
- Assay conditions: aqueous buffers (i) to (v), aqueous buffer, thermodynamic from solid; buffers (i) to (v), 37° C., 1 to 24 hours; read-out: concentration values range (solubility)
Quantity kind: solubility

The value of solubility measured for the compound O=C(NO)c1ccc(CNC(=O)c2[nH]c(-c3ccc(O)cc3)cc2-c2ccoc2)cc1 [QTX125 Form 2] turned out to be 0.15 to 1.76 µg/mL

====

- Measurement description: Aqueous solubility at 37° C. (HPLC of filtered suspension)
- Format: physicochemical
- Assay conditions: acetate buffer with 0.9% w/v sodium chloride, aqueous buffer, thermodynamic from solid; buffer (iii) acetate buffer, pH 4.5, 0.9% w/v sodium chloride; 37° C.; 24 hours; read-out: concentration of QTX125 (solubility)
Quantity kind: solubility at 24 h

compound O=C(NO)c1ccc(CNC(=O)c2[nH]c(-c3ccc(O)cc3)cc2-c2ccoc2)cc1 [QTX125 Form 2] , solubility at 24 h observed: 0.5 µg/mL

====

- Measurement description: Aqueous solubility at 37° C. (HPLC of filtered suspension)
- Format: physicochemical
- Assay conditions: phosphate buffer with 0.9% w/v sodium chloride, aqueous buffer, thermodynamic from solid; buffer (i) phosphate buffer, pH 3.5, 0.9% w/v sodium chloride; 37° C.; 7 hours; read-out: concentration of QTX125 (solubility)
Quantity kind: solubility at 7 h (µg/mL)
// units = µg/mL; emit number, no label

Query O=C(NO)c1ccc(CNC(=O)c2[nH]c(-c3ccc(O)cc3)cc2-c2ccoc2)cc1 [QTX125 Form 2] yields solubility at 7 h of 0.5

====

- Measurement description: Aqueous solubility at 37° C. (HPLC of filtered suspension)
- Type: physicochemical
- Assay conditions: phosphate buffer with 0.9% w/v sodium chloride, aqueous buffer, thermodynamic from solid; buffer (ii) phosphate buffer, pH 6.5, 0.9% w/v sodium chloride; 37° C.; 4 hours; read-out: concentration of QTX125 (solubility)
Quantity kind: solubility at 4 h (µg/mL)
Just the number please, in µg/mL, no unit attached.

Sure, the documented solubility at 4 h for O=C(NO)c1ccc(CNC(=O)c2[nH]c(-c3ccc(O)cc3)cc2-c2ccoc2)cc1 [QTX125 Form 2] is 0.15

====

- Measurement description: Aqueous solubility at 37° C. (HPLC of filtered suspension)
- Assay type: physicochemical
- Assay conditions: thermodynamic from solid; buffer (vi) deionised water; 37° C.; 24 hours; read-out: concentration of QTX125 (solubility)
Quantity kind: solubility at 24 h (µg/mL)
Give your result in µg/mL as a bare value.

Record summary for O=C(NO)c1ccc(CNC(=O)c2[nH]c(-c3ccc(O)cc3)cc2-c2ccoc2)cc1 [QTX125 Form 2] : reported solubility at 24 h = 16.6

====

- Measurement description: Aqueous solubility at 37° C. (HPLC of filtered suspension)
- Assay type: physicochemical
- Assay conditions: thermodynamic from solid; buffer (vi) deionised water; 37° C.; 4 hours; read-out: concentration of QTX125 (solubility)
Quantity kind: solubility at 4 h (µg/mL)
Enter your answer as a number in µg/mL; do not include the unit.

// solubility at 4 h value for O=C(NO)c1ccc(CNC(=O)c2[nH]c(-c3ccc(O)cc3)cc2-c2ccoc2)cc1 [QTX125 Form 2] : 22.4

====

- Measurement description: Aqueous solubility at 37° C. (HPLC of filtered suspension)
- Assay type: physicochemical
- Assay conditions: thermodynamic from solid; buffer (vi) deionised water; 37° C.; 1 hour; read-out: concentration of QTX125 (solubility)
Quantity kind: solubility at 1 h (µg/mL)
Entry rule: numbers only, all in µg/mL.

Looking up O=C(NO)c1ccc(CNC(=O)c2[nH]c(-c3ccc(O)cc3)cc2-c2ccoc2)cc1 [QTX125 Form 2] , I see its solubility at 1 h listed as 17.8

====

- Measurement description: Aqueous solubility at 37° C. (HPLC of filtered suspension)
- Assay type: physicochemical
- Assay conditions: 0.9% w/v sodium chloride solution, saline or isotonic, thermodynamic from solid; buffer (v) sodium chloride, 0.9% w/v; 37° C.; 24 hours; read-out: concentration of QTX125 (solubility)
- Procedure: The solubility of novel crystalline forms of QTX125 was assessed in the following aqueous solutions: (i) phosphate buffer, pH 3.5, 0.9% w/v sodium chloride; (ii) phosphate buffer, pH 6.5, 0.9% w/v sodium chloride; (iii) acetate buffer, pH 4.5, 0.9% w/v sodium chloride; (iv) citro-phosphate buffer, pH 4.5, 0.9% w/v sodium chloride; (v) sodium chloride, 0.9% w/v and (vi) deionised water. All assays were completed at 37° C. […]
Quantity kind: solubility at 24 h (µg/mL)
Please give a number only; it is taken to be in µg/mL.

Form field solubility at 24 h, entry O=C(NO)c1ccc(CNC(=O)c2[nH]c(-c3ccc(O)cc3)cc2-c2ccoc2)cc1 [QTX125 Form 2] : 0.81

====

- Measurement description: Aqueous solubility at 37° C. (HPLC of filtered suspension)
- Type: physicochemical
- Assay conditions: citro-phosphate buffer with 0.9% w/v sodium chloride, aqueous buffer, thermodynamic from solid; buffer (iv) citro-phosphate buffer, pH 4.5, 0.9% w/v sodium chloride; 37° C.; 1 hour; read-out: concentration of QTX125 (solubility)
Quantity kind: solubility at 1 h (µg/mL)
Give the value in µg/mL but do not write µg/mL after it.

O=C(NO)c1ccc(CNC(=O)c2[nH]c(-c3ccc(O)cc3)cc2-c2ccoc2)cc1 [QTX125 Form 2] yielded solubility at 1 h of 0.32

====

- Measurement description: Aqueous solubility at 37° C. (HPLC of filtered suspension)
- Type: physicochemical
- Assay conditions: citro-phosphate buffer with 0.9% w/v sodium chloride, aqueous buffer, thermodynamic from solid; buffer (iv) citro-phosphate buffer, pH 4.5, 0.9% w/v sodium chloride; 37° C.; 7 hours; read-out: concentration of QTX125 (solubility)
Quantity kind: solubility at 7 h
The number alone won't do; follow it with the unit.

Lab book: solubility at 7 h of O=C(NO)c1ccc(CNC(=O)c2[nH]c(-c3ccc(O)cc3)cc2-c2ccoc2)cc1 [QTX125 Form 2] noted as 0.17 µg/mL
